Where do the numbers come from? From ChEMBL document CHEMBL1132038.

Listed next: entries and their corresponding pIC50.
- target_under_test: Beta-2 adrenergic receptor (Homo sapiens, UniProt P07550)
- Sequence (P07550 whole entry): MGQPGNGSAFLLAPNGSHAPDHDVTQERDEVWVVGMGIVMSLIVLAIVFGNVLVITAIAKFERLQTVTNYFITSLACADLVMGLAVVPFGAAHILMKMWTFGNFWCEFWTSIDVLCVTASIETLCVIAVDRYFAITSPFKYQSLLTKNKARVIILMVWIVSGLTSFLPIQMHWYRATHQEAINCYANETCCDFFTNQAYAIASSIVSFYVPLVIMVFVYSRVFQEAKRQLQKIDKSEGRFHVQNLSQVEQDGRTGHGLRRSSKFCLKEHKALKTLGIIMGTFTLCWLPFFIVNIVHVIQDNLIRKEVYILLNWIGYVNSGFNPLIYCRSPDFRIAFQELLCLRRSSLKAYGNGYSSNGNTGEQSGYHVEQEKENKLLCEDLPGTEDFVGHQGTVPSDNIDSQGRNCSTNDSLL
- procedure_details: Inhibitory activity against cloned human Beta-2 adrenergic receptor in the presence of [125I]iodocyanopindolol in CHO cells by receptor binding assay
A value of pIC50 is the negative decimal logarithm of a concentration given in moles per litre.

A selection of reference data follows.
CCCCCCn1nnn(-c2ccc(S(=O)(=O)Nc3ccc(CCNC[C@H](O)c4cccnc4)cc3)cc2)c1=O ... 5.48
CCCCCCCCn1nnn(-c2ccc(S(=O)(=O)Nc3ccc(CCNC[C@H](O)c4cccnc4)cc3)cc2)c1=O ... 6.24

Kindly review the next molecule as well.
Item `O=c1n(CCCC2CCCC2)nnn1-c1ccc(S(=O)(=O)Nc2ccc(CCNC[C@H](O)c3cccnc3)cc2)cc1` has what recorded pIC50?
5.80

###

- target_under_test: UniProt P07550
- procedure_details: Agonistic activity against the cloned human Beta-2 adrenergic receptor was measured by its by its ability to stimulate adenylyl cyclase
recorded_metric: EC50 (nM)
Number only, in nM; omit the unit.

I'm curious: which EC50 was measured for `O=c1n(CCCC2CCCC2)nnn1-c1ccc(S(=O)(=O)Nc2ccc(CCNC[C@H](O)c3cccnc3)cc2)cc1` tested on UniProt P07550?
1800

###

- procedure_details: Oral bioavailability in rat
- Assay type: ADME, organism-based
- condition_details: in vivo
recorded_metric: bioavailability (%)
Number only, in %; omit the unit.

Item `O=c1n(CCCC2CCCC2)nnn1-c1ccc(S(=O)(=O)Nc2ccc(CCNC[C@H](O)c3cccnc3)cc2)cc1` has what recorded bioavailability?
27

###

- target_under_test: UniProt:P13945
- procedure_details: Agonistic activity against the cloned human Beta-3 adrenergic receptor was measured by its by its ability to stimulate adenylyl cyclase
Listed next: entries and their corresponding pEC50.
A value of pEC50 is the negative decimal logarithm of a concentration given in moles per litre.

A selection of reference data follows.
CCCCCCn1nnn(-c2ccc(S(=O)(=O)Nc3ccc(CCNC[C@H](O)c4cccnc4)cc3)cc2)c1=O ... 7.52
O=c1n(CCCC2CCCC2)nnn1-c1ccc(S(=O)(=O)Nc2ccc(CCNC[C@H](O)c3cccnc3)cc2)cc1 ... 7.89

Kindly review the next compound as well.
I'm curious: which pEC50 was measured for `CCCCCCCCn1nnn(-c2ccc(S(=O)(=O)Nc3ccc(CCNC[C@H](O)c4cccnc4)cc3)cc2)c1=O` tested on UniProt:P13945?
8.20

###

- procedure_details: Oral bioavailability in dog
- Type: ADME, organism-based, Canis lupus familiaris
- condition_details: in vivo
recorded_metric: bioavailability (%)
Number only, in %; omit the unit.

Item `O=c1n(CCCC2CCCC2)nnn1-c1ccc(S(=O)(=O)Nc2ccc(CCNC[C@H](O)c3cccnc3)cc2)cc1` has what recorded bioavailability?
27

###

Listed next: entries and their corresponding half-life.
- procedure_details: Compound was evaluated for the half-life (t 1/2) in hours
- Type: ADME, organism-based, Canis lupus familiaris
- condition_details: dog, in vivo
Number only, in h; omit the unit.

O=C1N(CCCC2CCCC2)CCN1c1ccc(S(=O)(=O)Nc2ccc(CCNC[C@H](O)c3cccnc3)cc2)cc1 ... 3.5

Kindly review the next compound as well.
Item `CCCCCCn1ccn(-c2ccc(S(=O)(=O)Nc3ccc(CCNC[C@H](O)c4cccnc4)cc3)cc2)c1=O` has what recorded half-life?
3.6

###

- target_under_test: Beta-3 adrenergic receptor (Homo sapiens, UniProt P13945)
- Sequence (P13945 whole entry): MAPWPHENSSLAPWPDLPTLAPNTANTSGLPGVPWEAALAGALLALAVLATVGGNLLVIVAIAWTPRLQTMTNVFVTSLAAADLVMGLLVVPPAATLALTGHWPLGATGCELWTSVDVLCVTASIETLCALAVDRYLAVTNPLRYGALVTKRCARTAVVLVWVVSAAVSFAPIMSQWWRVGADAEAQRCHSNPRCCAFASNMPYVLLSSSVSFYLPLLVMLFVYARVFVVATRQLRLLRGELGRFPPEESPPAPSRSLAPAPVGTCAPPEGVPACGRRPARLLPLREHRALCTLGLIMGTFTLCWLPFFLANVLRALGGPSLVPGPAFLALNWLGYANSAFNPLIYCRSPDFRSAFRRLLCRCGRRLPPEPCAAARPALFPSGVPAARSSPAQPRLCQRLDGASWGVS
- procedure_details: Inhibitory activity against cloned human Beta-3 adrenergic receptor in the presence of [125I]iodocyanopindolol expressed in CHO cells by receptor binding assay
recorded_metric: IC50 (nM)
Number only, in nM; omit the unit.

Item `O=c1n(CCCC2CCCC2)nnn1-c1ccc(S(=O)(=O)Nc2ccc(CCNC[C@H](O)c3cccnc3)cc2)cc1` has what recorded IC50?
92

###

- target_under_test: UniProt P08588
- Sequence (P08588 whole entry): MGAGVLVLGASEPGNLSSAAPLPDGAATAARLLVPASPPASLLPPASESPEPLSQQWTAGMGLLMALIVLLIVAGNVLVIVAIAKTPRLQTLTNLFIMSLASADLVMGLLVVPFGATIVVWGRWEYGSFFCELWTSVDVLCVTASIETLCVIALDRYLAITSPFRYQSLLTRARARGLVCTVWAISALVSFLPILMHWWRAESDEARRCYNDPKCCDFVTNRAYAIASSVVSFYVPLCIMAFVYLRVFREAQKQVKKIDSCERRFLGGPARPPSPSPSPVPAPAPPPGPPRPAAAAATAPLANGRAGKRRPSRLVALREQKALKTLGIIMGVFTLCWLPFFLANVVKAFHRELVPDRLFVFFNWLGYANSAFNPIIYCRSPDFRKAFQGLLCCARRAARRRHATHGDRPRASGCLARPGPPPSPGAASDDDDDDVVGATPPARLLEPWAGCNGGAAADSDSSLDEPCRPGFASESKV
- procedure_details: Inhibitory activity against cloned human Beta-1 adrenergic receptor in the presence of [125I]iodocyanopindolol expressed in CHO cells by receptor binding assay
- Type: cell-based
recorded_metric: pIC50
A value of pIC50 is the negative decimal logarithm of a concentration given in moles per litre.

Item `O=c1n(CCCC2CCCC2)nnn1-c1ccc(S(=O)(=O)Nc2ccc(CCNC[C@H](O)c3cccnc3)cc2)cc1` has what recorded pIC50?
5.47
